Record form. Attribute: pIC50. Fill in for each entry.
# System: CCRF-CEM
# assay_details: Cytotoxicity against human CCRF-CEM cells
# Assay type: functional, cell-based
Reminder that pIC50 is minus the log10 of a molar concentration.

Challenge: Recorded pIC50 of COc1cccc2c(-c3ccc4c(c3O)[C@@H](C)N[C@H](C)C4)c(C)c(-c3c(C)c(-c4ccc5c(c4O)[C@@H](C)N[C@H](C)C5)c4cccc(OC)c4c3O)c(O)c12 (stereo in doubt; 4e) , please.
Response given: 4.94

Challenge: Record request: pIC50 value, item COc1cccc2c(-c3ccc4c(c3O)[C@@H](C)N[C@H](C)C4)c(C)c(-c3c(C)c(-c4ccc5c(c4O)[C@@H](C)N[C@H](C)C5)c4cccc(OC)c4c3O)c(O)c12 (stereo in doubt; 4d)
Response given: 5.27
